Measured values drawn from PubChem BioAssay (NCI) for this set.

tested on: MDA-MB-468 breast; assay: NCI tumour cell line growth inhibition, 48 h; in the data active means GI50 below about 0.43 µM; inactive means the rest
Labels: Yes (active), No (inactive)

| molecule | category |
| --- | --- |
| COc1ccc(C2c3cc4c(cc3OC(N3CCOCC3)C2C)OCO4)cc1OC (stereo not drawn) | No |
| c1ccc2[nH]c(-c3ccc(Nc4nc(N5CCCC5)nc5[nH]ncc45)cc3)nc2c1 | Yes |
| COc1cc(-c2csc(NC(=O)Nc3ccc(Cl)cc3)n2)cc(OC)c1OC | No |

* * *

test system: MDA-MB-468 breast; test: NCI tumour cell line growth inhibition, 48 h
Label label 1 when TGI is at or above 10 µM; otherwise label label 0.

| compound | measured.target | category |
| --- | --- | --- |
| O=C(O)CN(CCN(CC(=O)O)CC(=O)O)CCN(CC(=O)O)CC(=O)O | MDA-MB-468 breast | label 1 |
| COc1cccc2c1C(=O)c1c(O)c3c(c(O)c1C2=O)C[C@@](O)(C(=O)CO)C[C@@H]3OC1CC(N2CCOCC2)C(O)C(C)O1 (some centres undefined) | MDA-MB-468 breast | label 0 |
| CN(C)CCN1C(=O)c2cccc3cc(N)cc(c23)C1=O | MDA-MB-468 breast | label 1 |
| COc1ccc(-c2nn3ncccc3c2-c2ccnc(Nc3ccc(F)c(F)c3)n2)cc1 | MDA-MB-468 breast | label 1 |
| C=CCn1c(SCC(=O)Nc2ccc(C(=O)/C=C/c3cc(OC)c(OC)c(OC)c3)cc2)nnc1-c1cc(OC)c(OC)c(OC)c1 | MDA-MB-468 breast | label 0 |
| Clc1ccc2c(NC3CCC(NC4CCCCC4)CC3)ccnc2c1 (centres undefined) | MDA-MB-468 breast | label 0 |
| Cc1cc(NC(=O)NCCCOc2ccc(N3C(N)=NC(N)=NC3(C)C)cc2Cl)ccc1S(=O)(=O)F | MDA-MB-468 breast | label 1 |
| Cc1ccc(-c2nnc(SCc3ccc(O)c4ncccc34)o2)cc1 | MDA-MB-468 breast | label 1 |
| CC(C)Cn1cnc2c(N)nc3ccccc3c21 | MDA-MB-468 breast | label 1 |
